- Substrate: CCOC(=O)C(=O)CCc1ccccc1
- PROTOCOL_DETAILS: purified protein
- Format: biochemical, Thermotoga maritima
- EXPERIMENTAL_CONTEXT: apparent, 0.25 mM NADPH, 50 mM potassium phosphate pH 6.5, 35 °C, 30 mM DMSO
Listed proteins paired with reported kcat
VALUE_TYPE: kcat (s⁻¹)

PROTEIN: Tm1743 (Thermotoga maritima MSB8; W118H/W21L) (protein) MLYKELGRTGEEIPALGLGTLGIGGFETPDYSRDEEMVELLKTAIKMGYTHIDTAEYYGGGHTEELIGKAIKDFRREDLFIVSKVWPTHLRRDDLLRSLENTLKRLDTDYVDLYLIHHPNPEIPLEETLSAMAEGVRQGLIRYIGVSNFDRRLLEEAISKSQEPIVCDQVKYNIEDRDPERDGLLEFCQKNGVTLVAYSPLRRTLLSEKTKRTLEEIAKNHGATIYQIMLAWLLAKPNVVAIPKAGRVEHLRENLKATEIKLSEEEMKLLDSLG
OBSERVED_VALUE: 1.98
--
PROTEIN: Tm1743 (Thermotoga maritima MSB8) (protein) MLYKELGRTGEEIPALGLGTWGIGGFETPDYSRDEEMVELLKTAIKMGYTHIDTAEYYGGGHTEELIGKAIKDFRREDLFIVSKVWPTHLRRDDLLRSLENTLKRLDTDYVDLYLIHWPNPEIPLEETLSAMAEGVRQGLIRYIGVSNFDRRLLEEAISKSQEPIVCDQVKYNIEDRDPERDGLLEFCQKNGVTLVAYSPLRRTLLSEKTKRTLEEIAKNHGATIYQIMLAWLLAKPNVVAIPKAGRVEHLRENLKATEIKLSEEEMKLLDSLG
OBSERVED_VALUE: 1.96
--
PROTEIN: Tm1743 (Thermotoga maritima MSB8; W118E/W21L) (protein) MLYKELGRTGEEIPALGLGTLGIGGFETPDYSRDEEMVELLKTAIKMGYTHIDTAEYYGGGHTEELIGKAIKDFRREDLFIVSKVWPTHLRRDDLLRSLENTLKRLDTDYVDLYLIHEPNPEIPLEETLSAMAEGVRQGLIRYIGVSNFDRRLLEEAISKSQEPIVCDQVKYNIEDRDPERDGLLEFCQKNGVTLVAYSPLRRTLLSEKTKRTLEEIAKNHGATIYQIMLAWLLAKPNVVAIPKAGRVEHLRENLKATEIKLSEEEMKLLDSLG
OBSERVED_VALUE: 1.98
--
PROTEIN: Tm1743 (Thermotoga maritima MSB8; W21S/W86E) (protein) MLYKELGRTGEEIPALGLGTSGIGGFETPDYSRDEEMVELLKTAIKMGYTHIDTAEYYGGGHTEELIGKAIKDFRREDLFIVSKVEPTHLRRDDLLRSLENTLKRLDTDYVDLYLIHWPNPEIPLEETLSAMAEGVRQGLIRYIGVSNFDRRLLEEAISKSQEPIVCDQVKYNIEDRDPERDGLLEFCQKNGVTLVAYSPLRRTLLSEKTKRTLEEIAKNHGATIYQIMLAWLLAKPNVVAIPKAGRVEHLRENLKATEIKLSEEEMKLLDSLG
OBSERVED_VALUE: 1.01
